Cited source: patent US20150290200A1

target under test: LCK kinase domain (Homo sapiens, UniProt P06239)
Construct: The kinase domains of BTK, LCK and ERK were expressed as recombinant purified proteins
Sequence (P06239 245-498 limits assumed, species assumed): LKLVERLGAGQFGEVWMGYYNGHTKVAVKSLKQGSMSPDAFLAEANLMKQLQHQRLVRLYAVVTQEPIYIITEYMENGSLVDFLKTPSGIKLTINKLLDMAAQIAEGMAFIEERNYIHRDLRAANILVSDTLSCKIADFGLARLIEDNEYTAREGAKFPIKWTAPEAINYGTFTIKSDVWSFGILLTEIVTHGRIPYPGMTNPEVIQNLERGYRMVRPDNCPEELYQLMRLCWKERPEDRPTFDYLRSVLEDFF
test: In vitro kinase assay (HITHUNTER), LCK
protocol conditions: Table 2
quantity measured: pIC50
Formally, pIC50 is defined as -log10 of the concentration c, with c in mol/L.

Could you tell me which pIC50 is on file for COc1ccc(C(=O)CCN2CCOCC2)c(OC)c1 ?
4.68

Do the same for O=C(CCN1CCOCC1)c1cccc(OC(F)(F)F)c1 please
4.55

Do the same for O=C(CCN1CCOCC1)c1ccc(-c2ccccc2)cc1 please
5.09

Do the same for O=C(CCN1CCOCC1)c1cccc(Oc2ccccc2)c1 please
4.73

Do the same for O=C(CCN1CCOCC1)c1ccc(N2CCOCC2)cc1 please
4.57

Do the same for O=C(CCN1CCOCC1)c1cccc(Cl)c1 please
4.32

Do the same for O=C(CCN1CCOCC1)c1ccc2c(c1)OCCO2 please
4.68

Do the same for O=C(CCN1CCOCC1)c1ccc2ccccc2c1 [drawing 129] please
4.70

Do the same for O=C(CCN1CCOCC1)c1cccc(F)c1 please
4.49

Do the same for COc1ccc(C(=O)CCN2CCOCC2)cc1OC [drawing 124] please
4.62

Do the same for O=C(CCN1CCOCC1)c1ccccc1Cl [drawing 133] please
4.55

Do the same for O=C(CCN1CCOCC1)c1ccc(Cl)c(Cl)c1 please
4.47

Do the same for O=C(CCN1CCOCC1)c1ccc(F)c(F)c1 please
4.48

Do the same for Cc1ccc(C(=O)CCN2CCOCC2)cc1 please
3.79

Do the same for O=C(CCN1CCOCC1)c1cc(F)ccc1Cl please
4.53

Do the same for N#Cc1cccc(C(=O)CCN2CCOCC2)c1 please
3.38

Do the same for Cc1ccc(C(=O)CCN2CCOCC2)cc1C please
4.67

Do the same for O=C(CCN1CCOCC1)c1ccc(Cl)cc1 please
4.59

Do the same for O=C(CCN1CCOCC1)c1ccc2c(c1)OCO2 please
4.63

Do the same for COc1cccc(C(=O)CCN2CCOCC2)c1 please
4.78

Do the same for O=C1COc2ccc(C(=O)CCN3CCOCC3)cc2N1 [drawing 120] please
5.54

Do the same for CCOc1ccccc1C(=O)CCN1CCOCC1 please
3.15

Do the same for O=C(CCN1CCOCC1)c1ccc(F)cc1 [drawing 122] please
4.56

Do the same for Cc1ccc(C(=O)CCN2CCOCC2)c(C)c1 please
4.60

Do the same for O=C(CCN1CCOCC1)c1cccc(C(F)(F)F)c1 please
4.57

Do the same for CN(C)c1cccc(C(=O)CCN2CCOCC2)c1 please
4.69

Do the same for O=C(CCN1CCOCC1)c1ccc(Oc2ccccc2)cc1 please
4.73
